- Study Target: T1, B7-H3 on MDA-MB-468 cells (human, UniProt Q5ZPR3)
- T1 construct: endogenous, on the cell surface
- T1 sequence (cell surface antigen, looked up): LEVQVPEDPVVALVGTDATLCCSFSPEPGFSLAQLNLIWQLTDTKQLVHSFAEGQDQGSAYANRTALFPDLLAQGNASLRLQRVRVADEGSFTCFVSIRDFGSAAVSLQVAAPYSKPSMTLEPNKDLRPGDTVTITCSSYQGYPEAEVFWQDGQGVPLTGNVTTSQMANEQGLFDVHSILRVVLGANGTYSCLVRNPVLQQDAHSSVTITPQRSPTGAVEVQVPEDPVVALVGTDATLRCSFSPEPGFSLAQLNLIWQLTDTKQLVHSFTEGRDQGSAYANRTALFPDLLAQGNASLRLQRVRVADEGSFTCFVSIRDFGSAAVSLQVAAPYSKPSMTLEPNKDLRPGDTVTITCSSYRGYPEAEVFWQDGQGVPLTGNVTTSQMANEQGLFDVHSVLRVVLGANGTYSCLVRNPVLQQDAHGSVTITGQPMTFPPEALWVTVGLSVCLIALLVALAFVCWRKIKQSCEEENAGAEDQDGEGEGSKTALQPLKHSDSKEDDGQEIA
- Protocol Description: flow cytometry on MDA-MB-468 cells; blank V2-R 0.9%
Quantity Kind: % of cells in gate V1-R at 11.11 nM (%)
Answer with a number only, understood to be in %.

Illustrative cases are given below, each with its answer.
Antibody V2 (antibody, human IgG1, kappa, V domains shown, Humanized from chimeric antibody M1; also called humanized antibody V2) VH: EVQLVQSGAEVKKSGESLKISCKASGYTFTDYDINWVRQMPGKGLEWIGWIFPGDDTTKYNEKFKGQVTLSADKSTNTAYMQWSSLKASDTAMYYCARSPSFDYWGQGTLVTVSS VL: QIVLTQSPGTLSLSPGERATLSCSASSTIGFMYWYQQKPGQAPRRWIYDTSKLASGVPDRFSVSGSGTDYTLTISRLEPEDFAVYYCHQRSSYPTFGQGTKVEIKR	97.8
Antibody V3 (antibody, human IgG1, kappa, V domains shown, Humanized from chimeric antibody M1; also called humanized antibody V3) VH: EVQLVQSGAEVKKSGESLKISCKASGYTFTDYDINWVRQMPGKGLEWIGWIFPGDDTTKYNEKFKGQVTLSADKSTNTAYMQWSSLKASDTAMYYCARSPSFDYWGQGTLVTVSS VL: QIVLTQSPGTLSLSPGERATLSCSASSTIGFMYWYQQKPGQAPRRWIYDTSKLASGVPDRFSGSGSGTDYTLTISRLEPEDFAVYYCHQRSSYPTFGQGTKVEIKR	97.2
control Antibody M30-H1-L4 (antibody, human IgG1, kappa, V domains shown, Control anti-B7-H3 antibody) VH: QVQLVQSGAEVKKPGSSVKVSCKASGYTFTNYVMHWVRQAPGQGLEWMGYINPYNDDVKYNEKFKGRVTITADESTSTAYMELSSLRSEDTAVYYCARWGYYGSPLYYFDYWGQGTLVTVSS VL: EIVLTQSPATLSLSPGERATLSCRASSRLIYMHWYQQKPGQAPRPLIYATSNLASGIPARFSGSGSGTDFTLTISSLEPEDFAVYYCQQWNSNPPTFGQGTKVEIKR	97.2

Lab note: measured % of cells in gate V1-R at 11.11 nM of Antibody V1 (antibody, human IgG1, kappa, V domains shown, Humanized from chimeric antibody M1; also called humanized antibody V1) VH: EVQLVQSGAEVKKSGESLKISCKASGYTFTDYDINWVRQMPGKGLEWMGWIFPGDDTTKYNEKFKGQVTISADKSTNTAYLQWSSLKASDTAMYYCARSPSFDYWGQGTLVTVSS VL: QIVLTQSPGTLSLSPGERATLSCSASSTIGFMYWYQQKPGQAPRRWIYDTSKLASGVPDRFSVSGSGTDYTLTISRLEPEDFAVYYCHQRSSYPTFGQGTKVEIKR was 99.5

Lab note: measured % of cells in gate V1-R at 11.11 nM of Antibody V5 (antibody, human IgG1, kappa, V domains shown, Humanized from chimeric antibody M1; also called humanized antibody V5) VH: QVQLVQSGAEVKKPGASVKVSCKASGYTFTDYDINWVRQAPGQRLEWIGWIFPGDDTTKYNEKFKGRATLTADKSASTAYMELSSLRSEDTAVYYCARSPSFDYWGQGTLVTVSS VL: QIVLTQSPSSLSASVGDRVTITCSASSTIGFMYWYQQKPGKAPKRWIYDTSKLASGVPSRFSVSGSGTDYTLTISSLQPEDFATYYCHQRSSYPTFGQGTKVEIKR was 99.3

Lab note: measured % of cells in gate V1-R at 11.11 nM of Antibody M1 (antibody, human IgG1, kappa, V domains shown, Chimeric antibody: murine variable regions on human IgG1 and light chain constant regions; expressed in HEK293F cells; also called chimeric antibody M1) VH: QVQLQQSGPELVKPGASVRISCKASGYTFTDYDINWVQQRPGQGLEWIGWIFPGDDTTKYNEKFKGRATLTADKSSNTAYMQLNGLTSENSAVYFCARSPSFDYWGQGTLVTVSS VL: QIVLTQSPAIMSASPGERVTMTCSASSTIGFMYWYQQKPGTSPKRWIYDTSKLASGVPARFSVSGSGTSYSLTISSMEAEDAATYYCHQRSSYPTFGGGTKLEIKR was 99.5

Provenance of the data: patent US20250262316A1
